Kindly supply the reported inhibition at 100 µM values for the records listed here.
- measurement-target: SARS-CoV-2 Mac1 (Severe acute respiratory syndrome coronavirus 2, UniProt P0DTD1)
- test-method-notes: biochemical
- condition-description: read-out: %inhibition
Structures can show the parent of a compound that is named as a salt.
Lab book: enter the figure in %, no units written.

Give the measured inhibition at 100 µM of CC(C)c1cc(C(=O)N2Cc3ccc(CN4CCN(C)CC4)cc3C2)c(O)cc1O . 5.85

Give the measured inhibition at 100 µM of N/N=c1\[nH][nH]/c(=N\N)c2ccccc12 [Dihydralazine sulphate] . 45.1

Give the measured inhibition at 100 µM of Cc1ccccc1C(=O)Nc1ccc(C(=O)N2CCCC(O)c3cc(Cl)ccc32)c(C)c1 (stereo not drawn) . 10.6

Give the measured inhibition at 100 µM of CC(C)OC(=O)CCC/C=C\C[C@@H]1[C@@H](/C=C/C(F)(F)COc2ccccc2)[C@H](O)C[C@@H]1O . 4.8

Give the measured inhibition at 100 µM of CN1CCC(OC(c2ccccc2)c2ccccc2)CC1 [Diphenylpyraline HCl] . 0

Give the measured inhibition at 100 µM of COc1ccc([C@]2(C#N)CC[C@@H](C(=O)O)CC2)cc1OC1CCCC1 . 1.61

Give the measured inhibition at 100 µM of N[C@@H](Cc1c[nH]c2ccc(O)cc12)C(=O)O [5-hydroxytryptophan (5-HTP)] . 0

Give the measured inhibition at 100 µM of NC(=O)NO [Hydroxyurea] . 20.8

Give the measured inhibition at 100 µM of O=C(O)O [Sodium carbonate] . 0.406
